Test system: HL-60 cells
Assay: HL-60 cell differentiation-inducing assay (NBT reduction)
Type: cell-based, human
Settings: Homo sapiens, HL-60, 96 h; ratio of NBT-positive cells, 4 days incubation; 'Inactive' = no or week active at the concentrations below 1 μM; read-out: HL-60 Assay EC50
pEC50: −log10 of the molar value.
Would you mind labelling by pEC50? At or over 9 is 1 (yes), under is 0 (no).

Chemical smiles	Target or system	Assigned category
C[C@H](CCC(=O)NCCC(=O)O)[C@H]1CC[C@H]2[C@@H]3CC[C@@H]4C[C@H](CC(C)(C)O)CC[C@]4(C)[C@H]3CC[C@]12C	HL-60 cells	1 (yes)
C[C@H](CCC(=O)NCC(=O)O)[C@H]1CC[C@H]2[C@@H]3CC[C@@H]4C[C@H](CC(C)(C)O)CC[C@]4(C)[C@H]3CC[C@]12C	HL-60 cells	0 (no)
C[C@H](CCC(N)=O)[C@H]1CC[C@H]2[C@@H]3CC[C@@H]4C[C@H](CC(C)(C)O)CC[C@]4(C)[C@H]3CC[C@]12C	HL-60 cells	1 (yes)

---

Target: VDR (Homo sapiens, UniProt P11473)
Sequence (P11473 whole entry): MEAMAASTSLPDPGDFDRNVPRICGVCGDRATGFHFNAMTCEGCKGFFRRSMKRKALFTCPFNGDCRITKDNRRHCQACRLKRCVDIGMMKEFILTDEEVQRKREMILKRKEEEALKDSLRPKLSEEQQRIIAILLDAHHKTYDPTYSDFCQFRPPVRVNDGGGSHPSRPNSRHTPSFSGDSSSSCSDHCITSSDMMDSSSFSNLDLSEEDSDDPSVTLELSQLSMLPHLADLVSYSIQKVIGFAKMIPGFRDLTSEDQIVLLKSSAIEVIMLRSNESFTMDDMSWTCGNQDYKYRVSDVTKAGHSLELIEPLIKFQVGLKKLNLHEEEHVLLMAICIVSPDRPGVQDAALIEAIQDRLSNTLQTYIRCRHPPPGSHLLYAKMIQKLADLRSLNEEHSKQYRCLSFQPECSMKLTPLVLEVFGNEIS
Experiment: VDR transactivation assay (luciferase reporter) in HEK293 cells
Conditions: HEK293 cells transfected with pCMX-hVDR and TK-Spp×3-LUC reporter; 'Inactive' = no or week active at the concentrations below 1 μM
Experimental: Human embryonic kidney HEK293 cells (RIKEN Cell Bank, Tsukuba, Japan) were cultured in Dulbecco’s modified Eagle’s medium containing 5% FBS, 100 U/mL penicillin, and 0.1 mg/mL streptomycin (Nacalai Tesque, Kyoto, Japan). […] Cells were harvested after 16–24 h and were assayed for luciferase and β-galactosidase activity using a luminometer and a microplate reader (Molecular Devices, Sunnyvale, CA, USA). […]
Flag rule - EC50 less than 0.1 nM flags Y; the remaining entries get N.

Chemical smiles	Target or system	Assigned category
CNC(=O)CC[C@@H](C)[C@H]1CC[C@H]2[C@@H]3CC[C@@H]4C[C@H](CC(C)(C)O)CC[C@]4(C)[C@H]3CC[C@]12C	VDR (Homo sapiens, UniProt P11473)	N
C[C@H](CCC(=O)NCCC(=O)O)[C@H]1CC[C@H]2[C@@H]3CC[C@@H]4C[C@H](CC(C)(C)O)CC[C@]4(C)[C@H]3CC[C@]12C	VDR (Homo sapiens, UniProt P11473)	N
C[C@H](CCC(N)=O)[C@H]1CC[C@H]2[C@@H]3CC[C@@H]4C[C@H](CC(C)(C)O)CC[C@]4(C)[C@H]3CC[C@]12C	VDR (Homo sapiens, UniProt P11473)	N
C[C@H](CCC(=O)NO)[C@H]1CC[C@H]2[C@@H]3CC[C@@H]4C[C@H](CC(C)(C)O)CC[C@]4(C)[C@H]3CC[C@]12C	VDR (Homo sapiens, UniProt P11473)	N
C[C@H](CCC(=O)NCCCC(=O)O)[C@H]1CC[C@H]2[C@@H]3CC[C@@H]4C[C@H](CC(C)(C)O)CC[C@]4(C)[C@H]3CC[C@]12C	VDR (Homo sapiens, UniProt P11473)	Y
C[C@H](CCC(=O)O)[C@H]1CC[C@H]2[C@@H]3CC[C@@H]4C[C@H](CC(C)(C)O)CC[C@]4(C)[C@H]3CC[C@]12C	VDR (Homo sapiens, UniProt P11473)	Y
CONC(=O)CC[C@@H](C)[C@H]1CC[C@H]2[C@@H]3CC[C@@H]4C[C@H](CC(C)(C)O)CC[C@]4(C)[C@H]3CC[C@]12C	VDR (Homo sapiens, UniProt P11473)	N
